Measured values drawn from the METLIN SMRT retention time set (Domingo-Almenara et al. 2019) for this set.

# measurement_protocol: gradient 5% acetonitrile 3 min, to 50% in 2 min, to 85% in 15 min, held 3 min, 100 µL/min
# setup_conditions: column: Zorbax Extend-C18 2.1 x 50 mm; eluents: water / acetonitrile, 0.1% formic acid
So I've got a bunch of molecules here, and I need their RP-LC retention time values.
Number only, in s; omit the unit.

INPUT: Return RP-LC retention time for the following molecule: O=C(NCc1ccc(F)c(Cl)c1)c1cn(-c2ccc(NC(=O)C3CC3)cn2)cn1
OUTPUT: 801

INPUT: Give the value of RP-LC retention time reported for the following: COc1nn(C)cc1C(=O)Nc1ccccc1SC
OUTPUT: 776

INPUT: Hello, please tell me recorded RP-LC retention time for this one: Cc1ccc(NC(=O)N2C[C@H](c3nc(-c4cccnc4)no3)[C@@H](C)C2)cc1
OUTPUT: 820

INPUT: Query RP-LC retention time for Cc1cccc(C)c1NC(=O)C1CCN(S(=O)(=O)c2ccc3c(c2)NC(=O)C(C)O3)CC1 (centres undefined)
OUTPUT: 824

---

Kindly supply the reported RP-LC retention time values for the records listed here.
# measurement_protocol: gradient 5% acetonitrile 3 min, to 50% in 2 min, to 85% in 15 min, held 3 min, 100 µL/min
# setup_conditions: column: Zorbax Extend-C18 2.1 x 50 mm; eluents: water / acetonitrile, 0.1% formic acid
Value expressed in s; do not type the unit.

INPUT: Assign RP-LC retention time to the following record: COc1cc(CN2CC(c3nc(-c4ccsc4)nn3C)C2)ccc1OC(C)C
OUTPUT: 684

INPUT: Give reported RP-LC retention time value for CC(=O)Nc1ccc(N(Cc2nnc3n2CCCCC3)C(=O)Nc2cccc(Cl)c2)cc1
OUTPUT: 691

INPUT: Consider the compound COc1ccc(S(=O)(=O)N2CCCC(C(=O)NC(C)(C)C)C2)cc1OC (stereo not drawn) . State its measured RP-LC retention time.
OUTPUT: 707

---

# measurement_protocol: gradient 5% acetonitrile 3 min, to 50% in 2 min, to 85% in 15 min, held 3 min, 100 µL/min
# setup_conditions: column: Zorbax Extend-C18 2.1 x 50 mm; eluents: water / acetonitrile, 0.1% formic acid
Please provide measured RP-LC retention time for the entries that follow.
Give me the value, and tack the unit on after it.

INPUT: Supply recorded RP-LC retention time for CCn1cc(S(=O)(=O)Nc2cccc(C#N)c2)c2cccnc21 here.
OUTPUT: 781 s

INPUT: Supply recorded RP-LC retention time for CC(C(=O)N1CCN(c2ccccn2)CC1)N1Cc2ccccc2C1=O (configuration not stated) here.
OUTPUT: 587 s

INPUT: Supply measured RP-LC retention time of COc1ccccc1OCCC1CCN(S(=O)(=O)c2ccc3c(c2)C(C)(C)C(=O)N3)C1 (configuration not stated) in your reply.
OUTPUT: 902 s

INPUT: Indicate the recorded RP-LC retention time value for this compound: Cc1csc(NC(=O)c2ccc(N3CCCC3)nn2)n1
OUTPUT: 626 s

INPUT: State, in one line, measured RP-LC retention time of Cc1ccc(NC(=O)NC2CCN(c3ccccc3)C2=O)cc1F (configuration not stated)
OUTPUT: 855 s

INPUT: Identify the reported RP-LC retention time for the following entry. O=C(NCc1ccc(C(F)(F)F)cc1)c1ccc(-c2cncnc2)nc1
OUTPUT: 782 s

INPUT: Identify measured RP-LC retention time associated with COc1ccc(-c2cn3c(CC(=O)Nc4ccc(Cl)cn4)csc3n2)cc1OC
OUTPUT: 715 s

---

# measurement_protocol: gradient 5% acetonitrile 3 min, to 50% in 2 min, to 85% in 15 min, held 3 min, 100 µL/min
# setup_conditions: column: Zorbax Extend-C18 2.1 x 50 mm; eluents: water / acetonitrile, 0.1% formic acid
property_measured: RP-LC retention time (s)
# value in s; strip the unit string

INPUT: Determine its reported RP-LC retention time: CC(Cc1ccco1)NC(=O)C(C)n1c2ccccc2c2cnn(C)c(=O)c21 (centres undefined)
OUTPUT: 603

INPUT: Respond only with RP-LC retention time recorded for CCC(CC)NC(=O)C1CCN(c2cn[nH]c(=O)c2)C1 (centres undefined)
OUTPUT: 612

INPUT: Report RP-LC retention time for O=C(c1ccc(OC(F)(F)F)cc1)N1CCN(CCn2cccn2)CC1
OUTPUT: 582

INPUT: Give a short answer stating reported RP-LC retention time for CC(C)(C)NC(=O)NC1CCN(C(=O)C2CC2)C1 (centres undefined) .
OUTPUT: 610

---

# measurement_protocol: gradient 5% acetonitrile 3 min, to 50% in 2 min, to 85% in 15 min, held 3 min, 100 µL/min
# setup_conditions: column: Zorbax Extend-C18 2.1 x 50 mm; eluents: water / acetonitrile, 0.1% formic acid
property_measured: RP-LC retention time (s)
Quick reminder: number only, in s, skip the unit.

INPUT: Indicate the recorded RP-LC retention time value for this molecule: CC(C)(C)c1[nH]cnc1/C=c1\[nH]c(=O)/c(=C/c2ccccc2)[nH]c1=O
OUTPUT: 806

INPUT: Answer with the recorded RP-LC retention time for the molecule listed here: Cc1ccc(C)c(NC(=O)C2CCCN(c3ncnc4c3nc3n4CCCCC3)C2)c1 (stereo not given)
OUTPUT: 793

INPUT: Provide only the value of recorded RP-LC retention time for Cn1cc(-c2ccncc2)cc1C(=O)NCc1ccccc1Cl
OUTPUT: 646

INPUT: // Input: Cc1ccccc1CNC(=O)C1CCN(S(=O)(=O)c2cc(C(=O)N(C)C)cs2)CC1 . Output its RP-LC retention time only.
OUTPUT: 762

INPUT: State its RP-LC retention time: CCOC(=O)CNC(=O)N1CCCN(C2=NS(=O)(=O)C(c3ccccc3)=C2C)CC1
OUTPUT: 718

INPUT: Supply RP-LC retention time value. Item: Cc1cccc(NC(=O)CN2C(=O)C3CCCCN3c3ccc(S(=O)(=O)N(C)C)cc32)c1 (stereo not given)
OUTPUT: 607

INPUT: Provide only the value of recorded RP-LC retention time for CCc1cccc(NC(=O)C2CCN(C(=O)C3Sc4ccccc4NC3=O)CC2)c1 (stereo not given)
OUTPUT: 762

INPUT: # return recorded RP-LC retention time for entry CC(C)NC(=O)Cn1c2ccccc2c2ncn(Cc3nc(-c4ccccc4)no3)c(=O)c21
OUTPUT: 848

INPUT: Entry COc1ccc(-c2n[nH]c3c2C(c2ccc(O)c(OC)c2)NC3=O)cc1 (stereo not given) needs its RP-LC retention time filled in; supply it.
OUTPUT: 639

INPUT: Give RP-LC retention time for COc1cc2c(cc1CNC(=O)Cn1cc(C(=O)c3ccco3)c3ccccc31)OCCCO2
OUTPUT: 902

INPUT: Could you please provide reported RP-LC retention time for O=C(NCc1cnoc1-c1ccc(F)cc1)c1ccccc1F ? Thanks!
OUTPUT: 866

INPUT: Write down RP-LC retention time measured for item CC(C)(C)CC(=O)N1CCCC(c2nc(CNC(=O)C3CCC3)cs2)C1 (stereo not given)
OUTPUT: 774

INPUT: Quote RP-LC retention time reported for CCc1ccc(NC(=O)N2CCN(Cc3ccc4nccnc4c3)CC2)cc1 please.
OUTPUT: 626

INPUT: Give the reported value of RP-LC retention time for this record: CC(C)C(=O)Nc1ccc2ncnc(N3CCCC3)c2c1
OUTPUT: 591

INPUT: // Input: CCOC(=O)c1c(C)[nH]c(C(=O)N2CCC(CC(=O)NC(C)CC)CC2)c1C (stereo not given) . Output its RP-LC retention time only.
OUTPUT: 715

INPUT: Using known records, supply RP-LC retention time for CCNC(=O)N1CCCN(S(=O)(=O)C(C)C)CC1
OUTPUT: 614

INPUT: Please report the measured RP-LC retention time for Cc1cccc(CN2CCN(C3CCN(C(=O)Nc4ccc5c(c4)OCCO5)CC3)C2=O)c1
OUTPUT: 804

INPUT: Provide measured RP-LC retention time value, entry: CCNc1cc(-n2ccnc2)ncn1
OUTPUT: 541

INPUT: Answer with the recorded RP-LC retention time of CN(C)CCNC(=O)Cc1cccn1-c1ccc(Cl)cc1 only.
OUTPUT: 618

INPUT: Tell me measured RP-LC retention time for CCCNC(=O)C1CCN(c2ccc(SCC(=O)Nc3cccc(C(F)(F)F)c3)nn2)CC1 please.
OUTPUT: 723

---

# measurement_protocol: gradient 5% acetonitrile 3 min, to 50% in 2 min, to 85% in 15 min, held 3 min, 100 µL/min
# setup_conditions: column: Zorbax Extend-C18 2.1 x 50 mm; eluents: water / acetonitrile, 0.1% formic acid
property_measured: RP-LC retention time (s)
Just the number in s, nothing appended.

INPUT: // Input: CCCCC(=O)Nc1ccc(OCc2cc(C(=O)NC(C)C)no2)cc1 . Output its RP-LC retention time only.
OUTPUT: 827

INPUT: In one line, give reported RP-LC retention time of the entry CCN1C(=O)c2cc(C(=O)NCc3ccc(N(C)C)cc3)nn2CC1(C)C(=O)NC1CCCC1 (stereo unspecified) .
OUTPUT: 570

INPUT: Return RP-LC retention time (reported value) for this molecule: COCCNC(=O)C1CCN(C(=O)Nc2ccc(NC(=O)Nc3ccccc3)cc2)CC1
OUTPUT: 678

INPUT: Write down RP-LC retention time measured for item CCc1cccc(NC(=O)Cn2nc3cc(C)nc(-c4ccccc4)n3c2=O)c1
OUTPUT: 899

INPUT: Indicate the recorded RP-LC retention time value for this molecule: CCCCN(C)C(=O)c1cc(NC(=O)C(C)(C)C)cnc1N1CCNCC1
OUTPUT: 622

INPUT: Find the measured RP-LC retention time of Cc1cccc2nnc(N3CCN(C(=O)c4ccc(F)cc4)CC3)n12 and report it.
OUTPUT: 648
